Values compiled from patent US20250346668A1.

# Subject of test: T1, human CD3e/g antigen (ACRO, catalog number CDG-H52W5) (human, UniProt P07766 23-126; P09693 23-116)
# T1 construct: Bought reagent used as the Biacore analyte; also called hCD3e/g
# Procedure text: SPR (Biacore 8K), antibody captured via anti-human Fc
Decision: kon >= 400000 M⁻¹ s⁻¹ yields t, all other cases yield f.

# Binder, Group
data = [
    ("hAb001-20 (antibody, V domains shown, Humanized; constant regions not specified) VH: QVQLVQSGAEVKKPGASVKVSCKASGYSFTNYYMHWVRQAPGQRLEWMGWTYPGNNNIKYNEKFKGRVTITRDTSASTAYMELSSLRSEDTAVYYCARDGYGYYFFDYWGQGTLVTVSS VL: DIVMTQSPDSLAVSLGERATMSCKSSQSLLNNRTRKNYLAWYQQKPGQPPKLLIYWASTRESGVPDRFTGSGSGTDFTLTISSLQAEDVAVYYCKQSYTLRTFGGGTKLEIK", "f"),
    ("hAb001-32 (antibody, V domains shown, Humanized; constant regions not specified) VH: QVQLVQSGAEVKKPGASVKVSCKASGYSFTNYYMHWVKQAPGQRLEWIGWTYPGNNNIKYNEKFKGRATITADTSASTAYMELSSLRSEDTAVYYCARDGYGYYFFDYWGQGTLVTVSS VL: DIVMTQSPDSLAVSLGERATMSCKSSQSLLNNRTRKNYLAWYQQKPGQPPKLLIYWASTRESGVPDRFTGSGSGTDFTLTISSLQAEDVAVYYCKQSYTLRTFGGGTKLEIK", "f"),
    ("hAb008-25 (antibody, V domains shown, Humanized; constant regions not specified) VH: QVQLVQSGAEVKKPGASVKVSCKASGYTFTDYTVNWVRQAPGQRLEWIGYINPFNSYTKYNQKFKDRATITADTSASTAYMELSSLRSEDTAVYFCANSVSTYWGQGTTVTVSS VL: DVVMTQSPLSLPVTLGQPASISCKSSQSLLDSDGKTYLNWFQQRPGQSPRRLIQLVSKLNSGVPDRFSGSGSGTDFTLKISRVEAEDVGVFYCWQGTHFPRTFGGGTKLEIK", "f"),
    ("hAb007-25 (antibody, V domains shown, Humanized; constant regions not specified) VH: QVQLVQSGAEVKKPGASVKVSCKASGSTFTDNYIHWVRQAPGQRLEWIGWIYPGSVNIKYNEKFKDRATITADTSASTAYMELSSLRSEDTAVYYCARDISRYYFDYWGQGTTVTVSS VL: DIVMTQSPDSLAVSLGERATINCKSSQSLLNSRTRKNYLAWYQQKPGQPPKLLIYWASTRESGVPDRFSGSGSGTDFTLTISSLQAEDVAVYYCKQSFILRTFGGGTKLEIK", "t"),
]
